# Tested on: PSEUDOMONAS CEPACIA 296I
# ASSAY_COMMENT: In vitro antibacterial activity, MIC, BHI agar dilution
# Assay type: cell-based
# MEASUREMENT_CONTEXT: P. cepacia 296I, unit assumed
In this section, each of the compounds is paired with its reported MIC.

Study these solved cases before continuing.
{"columns": ["COMPOUND", "RESULT"],
 "data": [
  ["CCC1OC(=O)C(C)C(=O)C(C)C(OC2OC(C)CC(N(C)C)C2O)C(C)(OC)CC(C)C2=NCC(C)(CN(C)Cc3ccccc3)N3C(=O)OC1(C)C3C2C (stereo not drawn)", "> 100 µg/mL"],
  ["CC[C@H]1OC(=O)[C@H](C)C(=O)[C@H](C)[C@@H](O[C@@H]2O[C@H](C)C[C@H](N(C)C)[C@H]2O)[C@](C)(OC)C[C@@H](C)C2=N[C@H](COCc3ccc(Br)cc3)CN3C(=O)O[C@@]1(C)[C@H]3[C@H]2C", "50 µg/mL"]
]}

Continue with the compound presented below.
Noted MIC for CC[C@H]1OC(=O)[C@H](C)C(=O)[C@H](C)[C@@H](O[C@@H]2O[C@H](C)C[C@H](N(C)C)[C@H]2O)[C@](C)(OC)C[C@@H](C)C2=N[C@@H](C)[C@H](C)N3C(=O)O[C@@]1(C)[C@H]3[C@H]2C , tested on PSEUDOMONAS CEPACIA 296I: > 100 µg/mL
